Parameter: TGI. Scope: all listed entries.
Tested on: SNB-19 CNS
protocol_notes: NCI tumour cell line growth inhibition, 48 h

compound | TGI
CCCCCCCCCCCCCCCC(=O)Nc1ccn(C2CCC(COP(=O)(O)OCC3OC(n4cc(F)c(=O)[nH]c4=O)CC3OC(C)=O)O2)c(=O)n1 (centres undefined) | 35.2 µM
COc1ccc(-n2c(Cn3nnc(-c4cccnc4)n3)nn(C3OC(COC(=O)c4ccccc4)C(OC(=O)c4ccccc4)C3OC(=O)c3ccccc3)c2=S)cc1 (centres undefined) | > 100 µM
CC(=O)O[C@H]1CC[C@@]2(C)C(=CC[C@@H]3[C@@H]2CC[C@](C)(c2nnc(C)o2)[C@H]3CC#N)C1 | > 100 µM
Cc1c2ccccc2c(C2C3C(=O)N(c4cccc5ccccc45)C(=O)C3ON2Cc2ccc(CC(N)=O)cc2)c2ccccc12 (centres undefined) | > 50 µM

###

Parameter: TGI. Scope: all listed entries.
Test system: M19-MEL melanoma
protocol_notes: NCI tumour cell line growth inhibition, 48 h

molecule | tested_target | TGI
CC(=O)N(CCN1C(=O)c2ccccc2C1=O)CCN1C(=O)c2ccccc2C1=O | M19-MEL melanoma | > 100 µM
Fc1ccc(C2SCc3nc4ccccc4n32)cc1F (stereo not given) | M19-MEL melanoma | > 100 µM
CCCCN(CCCC)CC(C(=O)Nc1ccc([N+](=O)[O-])cc1[N+](=O)[O-])/C(C)=N\NC(=O)C[N+](C)(C)C (stereo not given) | M19-MEL melanoma | > 100 µM
CC(=O)Oc1ccc(Nn2c3ccccc3c3ccccc32)c(C)c1 | M19-MEL melanoma | > 100 µM
O=C(Cc1ccccc1)N/N=C(/c1nc2ccc([N+](=O)[O-])cc2[nH]c1=O)C(O)c1ccc(C(O)/C(=N/NC(=O)Cc2ccccc2)c2nc3ccc([N+](=O)[O-])cc3[nH]c2=O)cc1 (stereo not given) | M19-MEL melanoma | > 100 µM

###

Parameter: TGI. Scope: all listed entries.
Test system: RXF 393 renal
protocol_notes: NCI tumour cell line growth inhibition, 48 h

compound | unit_descriptor | reported_relation | TGI
O=C1CCSc2nc(-c3ccc4c(c3)OCO4)nn21 | µM | > | 10
O=C(N/C=C/C=C/Sc1ccccc1)OCc1ccccc1 | µM | = | 35.6
C=C1c2[nH]c3ccccc3c2CC(C(=O)O)N1C(O)c1ccc(S(=O)(=O)O)cc1 (stereo not given) | µM | > | 100
O=C(O)c1cn(C2CC2)c2cc(N3CCN(C(=O)Nc4nc(-c5ccc(Br)cc5)cs4)CC3)c(F)cc2c1=O | µM | > | 100
COc1ccc(C2CC(c3ccc4ccccc4c3)=NN2c2nc(O)c(C3=c4cc(OC)ccc4=NC3=O)s2)cc1 (stereo not given) | µM | = | 0.0831
O=C(O)C1=CN(c2ccncc2)C(c2ccco2)=CC1c1ccccc1[N+](=O)[O-] (stereo not given) | µM | = | 15.5
CCC(C)CC(C)C(=O)c1c(O)ccn(O)c1=O (stereo not given) | µM | > | 100
O=C(c1ccccc1)C(Nc1ccc2ccccc2c1)c1ccccc1 (stereo not given) | µM | > | 100
Cc1cc2c(cc1C)[n+](=O)c(C(=O)CC(=O)C(=O)Nc1ccccc1C(C)C)c(C)n2[O-] | µM | > | 100
Cc1ccc(S(=O)(=O)ON2C(=O)c3c(N)c(C#N)c(-c4ccccc4)c(-c4ccccc4)c3C2=O)cc1 | µM | = | 26.5

###

System: MOLT-4 leukemia
protocol_notes: NCI tumour cell line growth inhibition, 48 h
Parameter: TGI. Scope: all listed entries.

molecule | reported_relation | TGI [µM]
C=C(CN1CCN(c2ccccc2C(F)(F)F)CC1)c1ccc(C(=O)Nc2ccccc2N)cc1 | = | 2.55
Cc1cc(C)c(S(=O)(=O)N(CCCN)OCCON(CCCN)S(=O)(=O)c2c(C)cc(C)cc2C)c(C)c1 | > | 100
O=[N+]([O-])c1ccc(/C(Cl)=C/c2ccc(/C=C(\Cl)c3ccc([N+](=O)[O-])cc3[N+](=O)[O-])cc2)c([N+](=O)[O-])c1 | > | 100
NS(=O)(=O)c1ccc(N=C2C(=O)Nc3ccccc32)cc1 | > | 100
COc1ccc(C2CC(c3ccc4ccccc4c3)=NN2c2nc(O)c(C3=c4cc(OC)ccc4=NC3=O)s2)cc1 (centres undefined) | = | 0.91
CC[C@@H]1CC[C@@H]2[C@H](CC[C@]3(C)[C@@H](OC(C)=O)CC[C@@H]23)[C@H]1C(=O)OC | = | 42
CC(C)(Oc1ccc2c(=O)cc(-c3ccccc3)oc2c1)C(=O)N1CCN(c2ccccc2)CC1 | > | 10
O=C(CCN1CCC(CCO)CC1)Nc1ccc2c(c1)C(=O)c1ccc(NC(=O)CCN3CCC(CCO)CC3)cc1C2=O | = | 24.5
CCN(CC)CC(O)COc1c(Br)c(Br)c(Br)c2c1OC(C)(C)C2 (centres undefined) | = | 3.68

###

System: MOLT-4 leukemia
protocol_notes: NCI tumour cell line growth inhibition, 48 h

compound | reported_relation | TGI [µM]
CC(=O)SC(SC(C)=O)SC(C)=O | > | 100
Brc1ccc(Nc2nc3ccccc3nc2Nc2ccc(Br)cc2)cc1 | = | 9.45
Cc1ccc(SCC(CF)OC(C)n2cnc3c(Cl)nc(N)nc32)cc1 (stereo unspecified) | > | 100
CC(=O)OCC1OC([Se-])C(OC(C)=O)C(OC(C)=O)C1OC(C)=O.N#CCC[PH+](CCC#N)CCC#N.[Au+] (stereo unspecified) | = | 14.1
CC(=O)OCC1OC(OC(C)=O)C(Nc2ncc(-c3ccc(C)cc3)s2)C(OC(C)=O)C1OC(C)=O (stereo unspecified) | = | 49.2
COc1cc2cc3c4cc(OC)c(OC)cc4cc[n+]3c(C)c2cc1OC | > | 100
Cc1c2ccccc2c(C2C3C(=O)N(c4cccc5ccccc45)C(=O)C3ON2Cc2ccc(CC(N)=O)cc2)c2ccccc12 (stereo unspecified) | = | 25.7
COc1ccc(NS(=O)c2c(C)cc(C)cc2C)cc1 (stereo unspecified) | > | 100
N#CCC1C2CC3C(C2=O)C13 (stereo unspecified) | > | 100
CCC(c1ccc(OC)cc1)C1NC(=S)NC1=O (stereo unspecified) | > | 50
O=C(Cc1ccc(Nc2ccnc(C(F)(F)F)c2)cc1)N/N=C/c1ccccc1O | = | 7.79
C=C(CCC/C(C)=C/C=C/[C@H](C)CCCc1ccoc1)C[C@@H]1OC(=O)[C@H](C)[C@@H]1O | = | 29.5
COC(=O)[C@H](COC(C)(C)C)NC(=O)N[C@H](C)c1ccccc1 | > | 100
CC(=O)N=c1ccc2nc(N)nn(O)c-2c1 | > | 100
N#C/C(=C\c1ccc(F)cc1)n1nc2cccc(F)c2n1 | > | 100
O=C1CCN2C(=N1)Sc1ccccc12 | > | 100
O=C(NS(=O)(=O)c1ccc(NC[C@H]2COCCO2)c([N+](=O)[O-])c1)c1ccc(N2CCN(CC3=C(c4ccc(Cl)cc4)CC4(CCC4)CC3)CC2)cc1Oc1cnc2[nH]ccc2c1 | = | 5.22
CC(Cc1cccc2c1Nc1ccccc1S2)N(C)CCO (stereo unspecified) | > | 100
O=c1oc2ccc3ccccc3c2cc1-c1cn2c(n1)sc1ccccc12 | = | 14
O=c1nc(N2CCCC2)nc(N2CCCC2)s1 | > | 100
CCOc1cc(/C=C/C(=O)C(C(=O)/C=C/c2ccc(OC(=O)CNc3nnc(C)s3)c(OCC)c2)C(=O)CNc2nnc(C)s2)ccc1OC(=O)CNc1nnc(C)s1 | = | 6.56

###

Test system: K-562 leukemia
protocol_notes: NCI tumour cell line growth inhibition, 48 h
Parameter: TGI. Scope: all listed entries.
property_measured: TGI

compound | tested_target | property_measured | experimental_result
COC(=O)c1ccc(C)cc1C1CN=NC12Cc1cc(C)ccc1C2=O (stereo unspecified) | K-562 leukemia | TGI | > 68.1 µM
O=C(O)CNCCc1ccccc1 | K-562 leukemia | TGI | > 100 µM
CCCCN(CCCC)CC(C(=O)Nc1ccc([N+](=O)[O-])cc1[N+](=O)[O-])/C(C)=N\NC(=O)C[N+](C)(C)C (stereo unspecified) | K-562 leukemia | TGI | > 100 µM
OCCCc1cnco1 | K-562 leukemia | TGI | > 100 µM
C/C(=N\O)c1cccc(Nc2cc(-c3ccccc3)nc3c(O)cccc23)c1 | K-562 leukemia | TGI | > 53.5 µM
CC(=O)Oc1ccc(Nn2c3ccccc3c3ccccc32)c(C)c1 | K-562 leukemia | TGI | > 100 µM
O=c1nc2c(c(-c3ccc(F)cc3)[nH]1)COC/C2=C\c1ccc(F)cc1 | K-562 leukemia | TGI | > 100 µM
Oc1ccc(Cc2ccc(O)c(C3CC(c4ccc(Cl)cc4)=NN3)c2)cc1C1CC(c2ccc(Cl)cc2)=NN1 (stereo unspecified) | K-562 leukemia | TGI | > 100 µM
O=C1CCN2C(=N1)Sc1ccccc12 | K-562 leukemia | TGI | > 100 µM
O=C(Cc1ccccc1)N/N=C(/c1nc2ccc([N+](=O)[O-])cc2[nH]c1=O)C(O)c1ccc(C(O)/C(=N/NC(=O)Cc2ccccc2)c2nc3ccc([N+](=O)[O-])cc3[nH]c2=O)cc1 (stereo unspecified) | K-562 leukemia | TGI | > 100 µM
CCCCOC(=O)NC(Nc1ccc(S(=O)(=O)Nc2ncccn2)cc1)(C(F)(F)F)C(F)(F)F | K-562 leukemia | TGI | > 100 µM
CN1C(=O)CN2C(Cl)(Cl)C2(c2ccccc2)c2cc(Cl)ccc21 (stereo unspecified) | K-562 leukemia | TGI | > 100 µM
CCOc1cc(/C=C/C(=O)C(C(=O)/C=C/c2ccc(OC(=O)CNc3nnc(C)s3)c(OCC)c2)C(=O)CNc2nnc(C)s2)ccc1OC(=O)CNc1nnc(C)s1 | K-562 leukemia | TGI | > 100 µM
COc1ccc(C2CC(c3ccc4ccccc4c3)=NN2c2nc(O)c(C3=c4cc(OC)ccc4=NC3=O)s2)cc1 (stereo unspecified) | K-562 leukemia | TGI | > 32.3 µM
CCOC(=O)C1(C#N)C(C#N)(C#N)C1(C#N)C#N | K-562 leukemia | TGI | > 100 µM
CC1=NC=C(O)c2ccccc2O1 | K-562 leukemia | TGI | > 100 µM
NS(=O)(=O)c1ccc(N=C2C(=O)Nc3ccccc32)cc1 | K-562 leukemia | TGI | > 100 µM
CCC(C)(C)[C@H](NC(=O)[C@H]1CCCCN1C)C(=O)N(C)[C@H](C[C@@H](OC(C)=O)c1nc(C(=O)N[C@@H](Cc2ccccc2)C[C@H](C)C(=O)O)cs1)C(C)C | K-562 leukemia | TGI | > 16.7 µM
CCC1c2cc3n(c(=O)c2COC1O)Cc1c-3nc2ccccc2c1Cl (stereo unspecified) | K-562 leukemia | TGI | > 100 µM
CC1(C)OC2C(CO)OC(n3ccc(N)nc3=O)C2O1 (stereo unspecified) | K-562 leukemia | TGI | > 100 µM
Cc1c2ccccc2c(C2C3C(=O)N(c4cccc5ccccc45)C(=O)C3ON2Cc2ccc(CC(N)=O)cc2)c2ccccc12 (stereo unspecified) | K-562 leukemia | TGI | > 50 µM
O=C(c1cccs1)c1nc2cc(Cl)ccc2[n+]([O-])c1C(F)(F)F | K-562 leukemia | TGI | > 100 µM
CN1c2ccccc2C(=O)NC12CCNCC2 | K-562 leukemia | TGI | > 100 µM
O=C1CCSc2nc(-c3ccc4c(c3)OCO4)nn21 | K-562 leukemia | TGI | > 10 µM
O=C(Cc1ccccc1)NN1C(=O)C(Cl)C1c1cccc([N+](=O)[O-])c1 (stereo unspecified) | K-562 leukemia | TGI | 54 µM
O=C(O)c1ccc(C(=O)O)c(C(=O)O)c1.[NH-]C1CCCCC1[NH-].[Pt+2] | K-562 leukemia | TGI | 88.9 µM
O=C(Nc1ccc(I)cc1)c1cccc([N+](=O)[O-])c1O | K-562 leukemia | TGI | > 100 µM
O=C1C=CC(=O)c2cc(Sc3ccccc3)c(=O)c(Sc3ccccc3)cc21 | K-562 leukemia | TGI | 61.9 µM
CC1(C)SCc2nc3ccccc3n21 | K-562 leukemia | TGI | > 100 µM
CCCOc1ccc(/C=N/Nc2cc(C)nc3ccc(Cl)cc23)cc1 | K-562 leukemia | TGI | 3.13 µM
CCc1cccc(CC)c1NC(=O)CC1SC(N)=NC1=O (stereo unspecified) | K-562 leukemia | TGI | > 100 µM
CC(C)OCc1cc(CN2CCN(c3cccc(Cl)c3)CC2)c(O)c2ncccc12 | K-562 leukemia | TGI | 10.3 µM
C=C1C(=O)c2cc3c(cc2C(c2cc(OC)c(OC)c(OC)c2)[C@@H]1C(=O)O)OCO3 (stereo partly specified) | K-562 leukemia | TGI | > 100 µM
O=C1Oc2cc3c(c4cccc1c24)OCN(c1ccccc1)C3 | K-562 leukemia | TGI | 63 µM
O=c1c(O)cc2c(O)oc3c(=O)c(O)c(O)c4c(O)oc1c2c43 | K-562 leukemia | TGI | 57.9 µM
NCCCn1c2c(c3ccc([N+](=O)[O-])cc3c1=O)C(=O)c1cc(F)ccc1-2 | K-562 leukemia | TGI | 0.331 µM
CC(C)(CN1CCCCC1)C(=O)CC(SCCN)c1ccc(Cl)cc1 (stereo unspecified) | K-562 leukemia | TGI | > 100 µM
CC(C)(Oc1ccc2c(=O)cc(-c3ccccc3)oc2c1)C(=O)N1CCN(c2ccccc2)CC1 | K-562 leukemia | TGI | > 10 µM
O=C1C=CC(=O)N1c1ccc(I)cc1 | K-562 leukemia | TGI | 53.5 µM
O=C(CCN1CCC(CCO)CC1)Nc1ccc2c(c1)C(=O)c1ccc(NC(=O)CCN3CCC(CCO)CC3)cc1C2=O | K-562 leukemia | TGI | 42.6 µM
Cc1c(-c2nc(N)c(C#N)c(N)c2C#N)c(=O)oc2ccccc12 | K-562 leukemia | TGI | > 100 µM
